Target: T1, RsmE P64W (Pseudomonas protegens, UniProt P0DPC3, P64W)
T1 sequence: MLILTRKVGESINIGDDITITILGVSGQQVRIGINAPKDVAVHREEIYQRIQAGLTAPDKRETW
Test: ITC; other site of the dimer holds one SL2 RNA; 50 mM potassium phosphate pH 7.2, 300 mM NaCl, 298 K; 10 uM monomer in the cell
Details: tags: C-His6 (kept); chain copies: 2; hairpin; 2 copies of the RNA per protein dimer, value for the second
METRIC_NAME: Kd
Put down the number, then write its unit next to it.

In: # input binder: GGGCCAUCAAGGACGAUGGUCC (ssRNA, T7 transcript (5' triphosphate expected)) [SL2] ; wanted: its Kd
Out: 118 nM
